- experiment.description: Microsomal clearance assay (M)
- measurement.context: intrinsic clearance in rat liver microsomes
What Assay M RLM CI(int) was measured for each of the following?
One number for each entry, in µL/min/mg.

Example compounds with recorded Assay M RLM CI(int):
Could you tell me which Assay M RLM CI(int) is on file for Cc1ccc(S(=O)(=O)N[C@H]2CC[C@H](O)CC2)cc1-c1cnc(N)c(-c2cnn(C)c2)n1 ?
14

Could you tell me which Assay M RLM CI(int) is on file for Cc1ccc(S(=O)(=O)N2CC(F)C2)cc1-c1cnc(N)c(-n2cncn2)n1 ?
72

Could you tell me which Assay M RLM CI(int) is on file for Cc1ccc(S(=O)(=O)N[C@H]2CC[C@H](O)CC2)cc1-c1cnc(N)c(-c2cccnc2)n1 ?
47

Turning now to a further record.
Could you tell me which Assay M RLM CI(int) is on file for Cc1cc(-c2nc(-c3cc(S(=O)(=O)NC4CCC(C)(O)CC4)ccc3C)cnc2N)ccn1 (stereo not shown) ?
21

* * *

- target.system: PI 3-kinase delta (Homo sapiens, UniProt O00329)
- Sequence (O00329 whole entry): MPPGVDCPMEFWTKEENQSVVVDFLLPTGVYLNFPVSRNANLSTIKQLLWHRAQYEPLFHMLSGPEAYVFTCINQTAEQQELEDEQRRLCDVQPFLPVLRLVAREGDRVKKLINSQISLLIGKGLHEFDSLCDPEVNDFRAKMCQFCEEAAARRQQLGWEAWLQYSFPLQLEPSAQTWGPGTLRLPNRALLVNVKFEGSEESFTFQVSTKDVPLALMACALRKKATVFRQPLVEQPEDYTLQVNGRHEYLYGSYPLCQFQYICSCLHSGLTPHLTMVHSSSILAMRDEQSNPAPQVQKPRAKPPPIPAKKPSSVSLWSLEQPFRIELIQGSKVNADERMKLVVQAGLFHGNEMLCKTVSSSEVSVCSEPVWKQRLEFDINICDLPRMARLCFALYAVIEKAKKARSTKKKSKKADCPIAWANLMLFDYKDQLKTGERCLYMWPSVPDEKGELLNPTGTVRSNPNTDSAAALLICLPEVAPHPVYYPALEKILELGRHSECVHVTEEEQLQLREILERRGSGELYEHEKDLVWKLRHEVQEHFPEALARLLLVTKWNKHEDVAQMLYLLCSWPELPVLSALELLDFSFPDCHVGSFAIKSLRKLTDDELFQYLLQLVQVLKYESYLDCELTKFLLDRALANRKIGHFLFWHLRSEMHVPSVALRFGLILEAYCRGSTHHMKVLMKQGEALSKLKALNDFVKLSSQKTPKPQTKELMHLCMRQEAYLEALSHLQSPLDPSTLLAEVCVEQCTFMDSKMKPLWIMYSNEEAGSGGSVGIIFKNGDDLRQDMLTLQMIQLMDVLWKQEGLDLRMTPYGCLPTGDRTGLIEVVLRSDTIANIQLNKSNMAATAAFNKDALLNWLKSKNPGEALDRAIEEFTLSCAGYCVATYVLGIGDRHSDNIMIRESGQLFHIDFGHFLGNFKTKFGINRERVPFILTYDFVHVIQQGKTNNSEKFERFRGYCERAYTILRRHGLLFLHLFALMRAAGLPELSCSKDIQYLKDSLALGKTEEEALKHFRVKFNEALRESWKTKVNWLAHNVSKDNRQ
- Sequence (P27986 461-568 partner): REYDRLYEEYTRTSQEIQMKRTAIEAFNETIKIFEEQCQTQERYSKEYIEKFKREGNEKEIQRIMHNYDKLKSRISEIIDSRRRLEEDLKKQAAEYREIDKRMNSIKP
- experiment.description: TR-FRET Adapta assay, assay F
- measurement.context: read-out: Assay F PI3Kδ IC50
Where a name gives a salt, the structure may show the parent alone.
readout.label: IC50
Value and unit, in that order.

Example compounds with recorded IC50:
Could you tell me which IC50 is on file for Cc1ccc(S(=O)(=O)NCCC(C)(C)O)cc1-c1cnc(N)c(-c2cnn(C(C)C)c2)n1 ?
0.11 µM

Could you tell me which IC50 is on file for Cc1ccc(S(=O)(=O)NC2CC(F)(F)C2)cc1-c1cnc(N)c(-n2cncn2)n1 ?
1.1 µM

Could you tell me which IC50 is on file for Cc1ccc(S(=O)(=O)NC[C@H]2CCCN2)cc1-c1cnc(N)c(-c2cn(C)nc2C)n1 [Example 106, hydrochloride] ?
0.14 µM

Could you tell me which IC50 is on file for Cc1ccc(S(=O)(=O)NCCN)cc1-c1cnc(N)c(-n2cncn2)n1 [Example 33, trifluoroacetic acid salt] ?
0.78 µM

Could you tell me which IC50 is on file for Cc1ccc(S(=O)(=O)N2CCCC(F)(F)C2)cc1-c1cnc(N)c(-n2cncn2)n1 ?
0.56 µM

Could you tell me which IC50 is on file for Cc1ccc(S(=O)(=O)NC[C@H]2C[C@@H](O)C2)cc1-c1cnc(N)c(-c2nc(C3CC3)no2)n1 ?
0.57 µM

Turning now to a further record.
Could you tell me which IC50 is on file for Cc1ccc(S(=O)(=O)N2CC(F)C2)cc1-c1cnc(N)c(-n2cncn2)n1 ?
3.9 µM

* * *

- target.system: PI 3-kinase delta (Homo sapiens, UniProt O00329)
- experiment.description: TR-FRET Adapta assay, assay F
- measurement.context: read-out: Assay F PI3Kδ IC50
pIC50: −log10 of the molar value.
Label rule, in plain words: pIC50 of 6 and up is yes, under 6 is no.

Reported pIC50 at or above 6? Cc1ccc(S(=O)(=O)NCCC(C)(C)O)cc1-c1cnc(N)c(-c2cc[nH]n2)n1 [Example 119.42]
yes

Further cases:
Reported pIC50 at or above 6? Cc1ccc(S(=O)(=O)NC[C@@H]2CCC(C)(C)O2)cc1-c1cnc(N)c(-n2cncn2)n1 [Example 127.39]
no

Reported pIC50 at or above 6? Cc1ccc(S(=O)(=O)NC2CC3(CC(O)C3)C2)cc1-c1cnc(N)c(-c2cn(C)nc2C)n1 (centres unmarked) [Example 74]
yes

Reported pIC50 at or above 6? Cc1ccc(S(=O)(=O)NCC2(O)COC2)cc1-c1cnc(N)c(-n2cncn2)n1 [Example 127.47]
no

Reported pIC50 at or above 6? Cc1cc(-c2nc(-c3cc(S(=O)(=O)NCCN4CCCC4)ccc3C)cnc2N)ccn1 [Example 129.27]
no

The measured values listed here are drawn from patent US10004732B2.
